src = paper PMC8151276

Molecular target: GRM7 (Homo sapiens, UniProt Q14831)
Construct: purchased Promega (in-house HiBiT-GPCR construct library, NanoBRET)
Sequence (Q14831 35-915): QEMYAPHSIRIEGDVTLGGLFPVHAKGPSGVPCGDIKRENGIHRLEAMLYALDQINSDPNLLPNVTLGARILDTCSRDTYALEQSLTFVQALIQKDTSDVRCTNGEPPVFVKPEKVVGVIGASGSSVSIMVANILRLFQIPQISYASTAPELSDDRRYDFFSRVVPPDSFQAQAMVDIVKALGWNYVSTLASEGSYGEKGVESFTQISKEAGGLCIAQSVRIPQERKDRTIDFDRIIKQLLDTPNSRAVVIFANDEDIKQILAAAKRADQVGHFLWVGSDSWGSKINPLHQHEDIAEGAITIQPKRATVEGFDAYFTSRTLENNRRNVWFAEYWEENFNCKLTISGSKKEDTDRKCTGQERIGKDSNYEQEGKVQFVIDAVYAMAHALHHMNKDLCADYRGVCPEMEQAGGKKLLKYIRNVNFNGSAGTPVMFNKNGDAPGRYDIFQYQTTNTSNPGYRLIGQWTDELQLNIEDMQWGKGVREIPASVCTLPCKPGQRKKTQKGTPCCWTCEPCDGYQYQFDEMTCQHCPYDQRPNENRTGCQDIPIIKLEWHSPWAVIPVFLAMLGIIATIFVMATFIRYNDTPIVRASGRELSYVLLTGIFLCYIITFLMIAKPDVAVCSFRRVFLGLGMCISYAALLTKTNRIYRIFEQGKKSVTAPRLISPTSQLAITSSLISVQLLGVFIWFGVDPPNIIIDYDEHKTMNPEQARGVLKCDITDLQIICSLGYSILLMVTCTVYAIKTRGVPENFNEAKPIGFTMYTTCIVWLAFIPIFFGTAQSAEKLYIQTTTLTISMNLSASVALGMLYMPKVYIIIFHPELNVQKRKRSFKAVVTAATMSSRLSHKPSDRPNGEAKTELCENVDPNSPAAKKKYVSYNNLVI
Test: NanoBRET screen HiBiT-GRM7 in HEK293
Type: binding
Conditions: GRM7; tracer 0.1μM
Protocol: Each tracer candidate was screened across the entire library of HiBiT-GPCR constructs using NanoBRET as the detection modality. As depicted in Figure 4A, the specificity of interactions was evaluated through decrease in BRET due to competitive displacement of a bound tracer by excess parental compound. Each tracer was analyzed for binding to each HiBiT-GPCR fusion in the absence and in the presence of competing parental compound. […]
QUANTITY_NAME: NanoBRET Fold Response

{"columns": ["COMPOUND", "EXPERIMENTAL_RESULT"],
 "data": [
  ["CN(C)CCC=C1c2ccccc2CCc2ccc(C(=O)NCCNC(=O)CCOCCOCCOCCOCCNC(=O)CCc3ccc4n3[B-](F)(F)[N+]3=C(c5ccc[nH]5)C=CC3=C4)cc21 [Amitriptyline-b-2-NB590]", 1.09],
  ["N#CN=C(NCCCOc1cccc(CN2CCCCC2)c1)NCCNC(=O)CCOCCOCCOCCOCCNC(=O)CCc1ccc2n1[B-](F)(F)[N+]1=C(c3ccc[nH]3)C=CC1=C2 [Aminopotentidine-2-NB590]", 0.98],
  ["COc1ccccc1N1CCN(CCCCN2C(=O)c3ccc(CNC(=O)CCOCCOCCOCCOCCNC(=O)CCc4ccc5n4[B-](F)(F)[N+]4=C(c6ccc[nH]6)C=CC4=C5)cc3C2=O)CC1 [NAN-190-2-NB590]", 1.00],
  ["Cc1cc2c(s1)Nc1ccccc1N=C2N1CCN(CCCNC(=O)CCOCCOCCOCCOCCNC(=O)CCc2ccc3n2[B-](F)(F)[N+]2=C(c4ccc[nH]4)C=CC2=C3)CC1 [Olanzapine-a-2-NB590]", 1.00],
  ["CC(C)N(CC[C@H](c1ccccc1)c1cc(CCNC(=O)CCOCCOCCOCCOCCNC(=O)CCc2ccc3n2[B-](F)(F)[N+]2=C(c4ccc[nH]4)C=CC2=C3)ccc1O)C(C)C [Tolterodine-2-NB590]", 1.18],
  ["Cc1nc2n(c(=O)c1CCN1CCC(c3noc4cc(F)ccc34)CC1)CCCC2OC(=O)NCCOCCOCCOCCOCCNC(=O)CCc1ccc2n1[B-](F)(F)[N+]1=C(c3ccc[nH]3)C=CC1=C2 (stereo not shown) [Risperidone-2-NB590]", 1.00],
  ["O=C(CCOCCOCCOCCOCCNC(=O)CCc1ccc2n1[B-](F)(F)[N+]1=C(c3ccc[nH]3)C=CC1=C2)NCCCN1CCN(C2=Nc3ccccc3Oc3ccc(Cl)cc32)CC1 [Loxapine-a-2-NB590]", 1.07]
]}

###

molecular target: ADORA1 (Homo sapiens, UniProt P30542); construct: purchased Promega (in-house HiBiT-GPCR construct library, NanoBRET); assay: NanoBRET screen HiBiT-ADORA1 in HEK293; format: binding; details: ADORA1; tracer 1μM
Sequence (P30542 whole entry): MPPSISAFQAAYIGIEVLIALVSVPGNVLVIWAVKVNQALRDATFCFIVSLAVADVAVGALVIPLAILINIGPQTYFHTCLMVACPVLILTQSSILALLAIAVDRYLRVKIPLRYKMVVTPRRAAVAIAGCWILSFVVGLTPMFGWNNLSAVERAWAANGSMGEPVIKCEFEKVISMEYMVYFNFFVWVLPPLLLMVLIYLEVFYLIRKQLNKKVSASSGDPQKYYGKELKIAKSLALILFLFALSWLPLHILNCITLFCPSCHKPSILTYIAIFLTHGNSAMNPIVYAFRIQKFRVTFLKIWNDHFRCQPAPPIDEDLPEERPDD
QUANTITY_NAME: NanoBRET Fold Response

{"columns": ["MOLECULE", "QUANTITY_NAME", "EXPERIMENTAL_RESULT"],
 "data": [
  ["Cc1nc2n(c(=O)c1CCN1CCC(c3noc4cc(F)ccc34)CC1)CCCC2OC(=O)NCCOCCOCCOCCOCCNC(=O)CCc1ccc2n1[B-](F)(F)[N+]1=C(c3ccc[nH]3)C=CC1=C2 (centres unmarked) [Risperidone-2-NB590]", "NanoBRET Fold Response", 1.05],
  ["Cc1cc2c(s1)Nc1ccccc1N=C2N1CCN(CCCNC(=O)CCOCCOCCOCCOCCNC(=O)CCc2ccc3n2[B-](F)(F)[N+]2=C(c4ccc[nH]4)C=CC2=C3)CC1 [Olanzapine-a-2-NB590]", "NanoBRET Fold Response", 1.22],
  ["O=C(CCc1ccc2n1[B-](F)(F)[N+]1=C(c3ccc[nH]3)C=CC1=C2)NCCOCCOCCNC(=O)OCCOCCN1CCN(C2=Nc3ccccc3Sc3ccccc32)CC1 [Quetiapine-a-2-NB590]", "NanoBRET Fold Response", 1.07],
  ["COc1ccccc1N1CCN(CCCCN2C(=O)c3ccc(CNC(=O)CCOCCNC(=O)c4ccc(CNC(=O)CCc5ccc6n5[B-](F)(F)[N+]5=C(c7ccc[nH]7)C=CC5=C6)cc4)cc3C2=O)CC1 [NAN-190-3-NB590]", "NanoBRET Fold Response", 0.89],
  ["O=C(CCOCCOCCOCCOCCNC(=O)CCc1ccc2n1[B-](F)(F)[N+]1=C(c3ccc[nH]3)C=CC1=C2)NCCCN1CCN(C2=Nc3ccccc3Oc3ccc(Cl)cc32)CC1 [Loxapine-a-2-NB590]", "NanoBRET Fold Response", 1.04],
  ["CCCn1c(=O)c2[nH]c(-c3ccc(OCC(=O)NCCNC(=O)CCOCCNC(=O)c4ccc(CNC(=O)CCc5ccc6n5[B-](F)(F)[N+]5=C(c7ccc[nH]7)C=CC5=C6)cc4)cc3)nc2n(CCC)c1=O [XAC-3-NB590]", "NanoBRET Fold Response", 7.99],
  ["COc1ccccc1N1CCN(CCCCN2C(=O)c3ccc(CNC(=O)CCOCCOCCOCCOCCNC(=O)CCc4ccc5n4[B-](F)(F)[N+]4=C(c6ccc[nH]6)C=CC4=C5)cc3C2=O)CC1 [NAN-190-2-NB590]", "NanoBRET Fold Response", 0.92],
  ["O=C(CCc1ccc2n1[B-](F)(F)[N+]1=C(c3ccc[nH]3)C=CC1=C2)NCc1ccc(C(=O)NCCOCCC(=O)N[C@@H]2CC[C@@]3(O)[C@H]4Cc5ccc(O)c6c5[C@@]3(CCN4CC3CC3)[C@H]2O6)cc1 [Naltrexone-3-NB590]", "NanoBRET Fold Response", 1.23],
  ["CC(C)N(CC[C@H](c1ccccc1)c1cc(CCNC(=O)c2ccc(CNC(=O)CCc3ccc4n3[B-](F)(F)[N+]3=C(c5ccc[nH]5)C=CC3=C4)cc2)ccc1O)C(C)C [Tolterodine-BZ-NB590]", "NanoBRET Fold Response", 1.02],
  ["CC(C)N(CC[C@H](c1ccccc1)c1cc(CCNC(=O)CCOCCOCCOCCOCCNC(=O)CCc2ccc3n2[B-](F)(F)[N+]2=C(c4ccc[nH]4)C=CC2=C3)ccc1O)C(C)C [Tolterodine-2-NB590]", "NanoBRET Fold Response", 0.99],
  ["N#CN=C(NCCCOc1cccc(CN2CCCCC2)c1)NCCNC(=O)CCOCCOCCOCCOCCNC(=O)CCc1ccc2n1[B-](F)(F)[N+]1=C(c3ccc[nH]3)C=CC1=C2 [Aminopotentidine-2-NB590]", "NanoBRET Fold Response", 1.01]
]}
